- TEST_DETAILS: kanamycin survival loss of SKKanGAS strain – BacTiter-Glo luminescence, streptokinase expression inhibitor project, primary screen (AID 1662);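 note: strain carries kanamycin resistance gene driven by streptokinase promoter and grows in 40 µg/ml kanamycin; loss of luminescence reflects streptokinase promoter inhibition or plain growth inhibition; 0% = median of DMSO wells and 100% = positive control at its reference dose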
- TEST_CONTEXT: S. pyogenes SKKanGAS, kanamycin growth, 6 h, at 7.5 µM
Out of some 300,000 compounds screened, about 4,000 (1.3%) were called active.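 Rule for the calls: active = mean replicate score, as percent of positive control median, at least 50; inconclusive = mean below 50 but one replicate at or above 50; inactive = mean and every replicate below 50.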 The sample as a whole holds a higher share of actives than the screen did.
Outcomes: active, inactive

>>> assigned_label("CC(=O)Nc1nc2ccccc2n1Cc1ccc(C)cc1")
"inactive"
>>> assigned_label("CN(C)CCCNC(=S)N1CCN(c2nc(-c3ccccc3)cs2)CC1")
"inactive"
>>> assigned_label("NNC(=O)c1ccc(COCC(F)(F)C(F)F)cc1")
"inactive"
>>> assigned_label("CCOc1ccc(NC(=O)NNC(=O)c2ccc(Cl)cc2Cl)cc1")
"inactive"
>>> assigned_label("COCCNC(=S)N(CCc1c(C)[nH]c2ccc(C)cc12)Cc1cccnc1")
"inactive"
>>> assigned_label("O=C(Nc1ccccc1Cl)NC1(C(=O)N2CCOCC2)CCCCC1")
"inactive"
>>> assigned_label("CN(CCc1ccccn1)C(=O)c1ccc(OC2CCN(Cc3ccccn3)CC2)cc1")
"inactive"
>>> assigned_label("CC(C)CCC(C)NC(=O)c1ccc2nccnc2c1 (configuration not stated)")
"inactive"
>>> assigned_label("Cn1c(SCC(=O)Nc2ccc(Cl)cc2)nc(O)cc1=O")
"active"
>>> assigned_label("NC(N)=N/N=C/c1ccc(OCc2ccc(Cl)cc2Cl)cc1")
"active"
>>> assigned_label("Cc1ccccc1-n1c(SCC(=O)Nc2cccc3ccccc23)nc(O)cc1=O")
"inactive"
>>> assigned_label("C[C@H]1CC[C@]2(O[C@@H](CCO)C[C@@H](O)[C@@H]2O)O1")
"inactive"
>>> assigned_label("COc1ccc(S(=O)(=O)NCc2cccnc2)cc1NC(=O)c1ccc(C)cc1")
"inactive"
>>> assigned_label("Oc1ccccc1C=NC1CCCCC1N=Cc1ccccc1O (configuration not stated)")
"inactive"
>>> assigned_label("COC(=O)Cn1cc(/C=C/[N+](=O)[O-])c2ccccc21")
"inactive"
>>> assigned_label("COc1cc2ccccc2cc1C(=O)Nc1nc(C)c(C(C)=O)s1")
"inactive"
>>> assigned_label("O=C(N/N=C/c1ccc([N+](=O)[O-])o1)c1cccc(S(=O)(=O)N2CCOCC2)c1")
"inactive"
>>> assigned_label("CCN1CC(CN(C)Cc2nc(-c3ccc(Cl)cc3)no2)CC1=O (configuration not stated)")
"inactive"
>>> assigned_label("CN(CCc1ccccn1)S(=O)(=O)c1ccc2c3c(cccc13)C(=O)N2")
"inactive"
>>> assigned_label("O=S(=O)(c1cc(Cl)ccc1Cl)N1CCN(Cc2ccco2)CC1")
"inactive"
>>> assigned_label("Cc1cc(C)c(C2C3=C(Nc4c2c(C)nn4-c2ccccn2)c2ccccc2C3=O)c(C)c1 (configuration not stated)")
"active"
>>> assigned_label("COc1ccc(S(=O)(=O)N2CCOCC2)cc1C(=O)Nc1nc2ccccc2s1")
"inactive"
>>> assigned_label("O=C(NCCN1CCOCC1)c1cc(-c2cccs2)nc2ccccc12")
"inactive"
>>> assigned_label("CCOc1ccc(CN(C)C(=O)c2ccc(=O)[nH]c2)cc1")
"inactive"
>>> assigned_label("O=[N+]([O-])c1cc(S(=O)(=O)Nc2cccc(Cl)c2)ccc1N=Nc1c(O)[nH]c2ccccc12")
"active"
>>> assigned_label("COC(=O)c1ccc([C@@H](O)[C@H](C)C(=O)CC(=O)OC(C)(C)C)cc1")
"inactive"
>>> assigned_label("Cc1cccc(N(CC(=O)N=Nc2c(O)[nH]c3ccccc23)S(C)(=O)=O)c1C")
"inactive"
>>> assigned_label("Cc1cc(C)c2nc(N(CCN(C)C)C(=O)/C=C/c3cccs3)sc2c1")
"inactive"
>>> assigned_label("COc1ccc(S(=O)(=O)NCC(=O)NC2CC2)cc1OC")
"inactive"
>>> assigned_label("CN(C)Cc1ccc(F)cc1Sc1cc(Cl)ccc1Cl")
"inactive"
>>> assigned_label("O=C(Nc1nnc(-c2ccccc2)o1)c1cc(-c2cccs2)nc2ccccc12")
"active"
>>> assigned_label("CCOCCCNC(=S)N1CCC(NC(=O)C2CCCCC2)CC1")
"inactive"
>>> assigned_label("CC(=C1C(=O)c2ccccc2C1=O)N1CCN(c2ccccn2)CC1")
"inactive"
>>> assigned_label("COc1cc2c(cc1NC(=O)COC(=O)/C=C/c1ccccc1)oc1ccccc12")
"inactive"
>>> assigned_label("O=C1c2ccccc2-c2ncnc3c(N4CCOCC4)cc(N4CCOCC4)c1c23")
"inactive"
>>> assigned_label("COC(=O)c1cc(-c2cccs2)nc2ccccc12")
"inactive"
>>> assigned_label("S=C1Nc2cc(Cl)ccc2Sc2ccccc21")
"inactive"
>>> assigned_label("CCOC(=O)CSc1nnc(NC(=O)C2CC(=O)N(c3ccc(F)cc3)C2)s1 (configuration not stated)")
"inactive"
>>> assigned_label("CC[C@H]1OC(=O)[C@H](C)[C@@H](O[C@H]2C[C@@](C)(OC)[C@@H](O)[C@H](C)O2)[C@H](C)[C@@H](O[C@@H]2O[C@H](C)C[C@H](N(C)C)[C@H]2O)[C@](C)(O)C[C@@H](C)[C@@H]2N[C@@H](COCCOC)O[C@H]([C@H]2C)[C@]1(C)O")
"active"
>>> assigned_label("CN1C(=O)/C(=C\\c2ccc(-c3ccccc3)o2)SC1=S")
"inactive"
>>> assigned_label("O=c1[nH][nH]c(C(F)(F)F)c1C=NCc1ccccc1Cl")
"inactive"
>>> assigned_label("O=C(O)C(c1ccccc1)N1C(=O)/C(=C\\c2ccc(-c3cccc(Cl)c3)o2)SC1=S (configuration not stated)")
"active"

* * *

- TEST_DETAILS: kanamycin survival loss of SKKanGAS strain – BacTiter-Glo luminescence, streptokinase expression inhibitor project, primary screen (AID 1662);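 note: strain carries kanamycin resistance gene driven by streptokinase promoter and grows in 40 µg/ml kanamycin; loss of luminescence reflects streptokinase promoter inhibition or plain growth inhibition; 0% = median of DMSO wells and 100% = positive control at its reference dose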
- TEST_CONTEXT: S. pyogenes SKKanGAS, kanamycin growth, 6 h, at 7.5 µM, hits give high values
Among all 300,000 compounds or so, about 4,000 (1.3%) were called active. Shown is part of a subset that was picked to be rich in actives.
inhibition listing for selected molecules.
QUANTITY_MEASURED: inhibition (%)

>>> data_value("O=C(Nc1cccc(Cl)c1)c1cncn1-c1ccc(F)cc1")
-0.257
>>> data_value("Cc1c(CC(=O)NCCCCCC(=O)O)c(=O)oc2cc3occ(-c4ccccc4)c3cc12")
18.7
>>> data_value("C=CCNc1nc(N)c([N+](=O)[O-])c(NC2CCCCC2)n1")
6.03
>>> data_value("O=C(Nc1ccc(Cl)c(Cl)c1)N1CC=C(c2ccccc2)CC1")
58.4
>>> data_value("Cc1ccccc1NC(=O)CSc1nc2ccc(Nc3nc(N4CCOCC4)nc(N4CCOCC4)n3)cc2s1")
15.9
>>> data_value("Nc1nc(NC(=O)/C=C/c2ccccc2)nn1-c1ccccc1")
-11.5
>>> data_value("O=C(Cn1cnc2ccccc21)Nc1ccccc1-c1ccccc1")
0.579
>>> data_value("O=C(CN(c1cccc(Cl)c1)S(=O)(=O)c1ccccc1)NN=C1CCCC1")
6.57
>>> data_value("Cn1nnc(NC(=S)NC(=O)c2ccccc2)n1")
-0.537
>>> data_value("Cc1ccc(C(=O)Nc2nc(N)n(-c3ccccc3)n2)cc1")
5.73
>>> data_value("CCn1c(SCC(=O)Nc2ccc(S(=O)(=O)Nc3onc(C)c3C)cc2)nnc1-c1ccccc1")
-0.983
>>> data_value("COCc1ccc(C(=O)NC2CC(C)(C)Cc3c2cnn3-c2ccc(C)cc2)o1 (configuration not stated)")
-6.03
>>> data_value("CCOc1ccc(-c2n[nH]c(C)c2-c2ccccn2)c(O)c1")
-4.57
>>> data_value("CN(CCO)c1ccc(/C=N/Nc2nncc3ccccc23)cc1")
68.8
>>> data_value("COc1cccc(NC(=O)C2C(c3ccccc3)C2(Cl)Cl)c1 (configuration not stated)")
31.8
>>> data_value("CC(C)Cc1oc(C(=O)O)cc1CN")
4.13
>>> data_value("Cc1noc(NS(=O)(=O)c2ccc(NC(=O)c3oc4ccc(F)cc4c3C)cc2)c1C")
25.3
>>> data_value("CC1(c2ccccc2)NC(=O)N(CC(=O)Nc2cc(Cl)ccc2N2CCOCC2)C1=O (configuration not stated)")
-3.7
>>> data_value("O=C(O)CCN(Cc1ccccc1)S(=O)(=O)c1c(Cl)cccc1Cl")
8.43
>>> data_value("CC1CCCCN1S(=O)(=O)CCNC(=O)c1ccccc1 (configuration not stated)")
-1.35
>>> data_value("Cc1ccc(C(=O)N/N=C\\c2cc(Br)c(Br)o2)cn1")
6.13
>>> data_value("Oc1ccc(C2Nc3cccc4cccc(c34)N2)cc1")
3.2
>>> data_value("CC(=O)O[C@H]1CC[C@@]2(C)[C@@H](CC[C@@H]3[C@@H]2CC[C@]2(C)[C@@H](C(C)(C)O)C[C@@H]32)C1")
29
>>> data_value("Nc1nc(NC(=O)/C=C/c2ccc(F)cc2)nn1-c1ccccc1")
76.1
>>> data_value("Cc1ccc(C2Nc3cccc4cccc(c34)N2)cc1")
9.05
>>> data_value("COc1ccc(C(=O)NC(=S)N2CCCCC2c2cccnc2)cc1OC (configuration not stated)")
5.87
>>> data_value("CCCCCCc1ccc(O)cc1O")
9.42
